molecular target: Tyrosine-protein kinase ABL1 (Homo sapiens, UniProt P00519)
Sequence (P00519 whole entry): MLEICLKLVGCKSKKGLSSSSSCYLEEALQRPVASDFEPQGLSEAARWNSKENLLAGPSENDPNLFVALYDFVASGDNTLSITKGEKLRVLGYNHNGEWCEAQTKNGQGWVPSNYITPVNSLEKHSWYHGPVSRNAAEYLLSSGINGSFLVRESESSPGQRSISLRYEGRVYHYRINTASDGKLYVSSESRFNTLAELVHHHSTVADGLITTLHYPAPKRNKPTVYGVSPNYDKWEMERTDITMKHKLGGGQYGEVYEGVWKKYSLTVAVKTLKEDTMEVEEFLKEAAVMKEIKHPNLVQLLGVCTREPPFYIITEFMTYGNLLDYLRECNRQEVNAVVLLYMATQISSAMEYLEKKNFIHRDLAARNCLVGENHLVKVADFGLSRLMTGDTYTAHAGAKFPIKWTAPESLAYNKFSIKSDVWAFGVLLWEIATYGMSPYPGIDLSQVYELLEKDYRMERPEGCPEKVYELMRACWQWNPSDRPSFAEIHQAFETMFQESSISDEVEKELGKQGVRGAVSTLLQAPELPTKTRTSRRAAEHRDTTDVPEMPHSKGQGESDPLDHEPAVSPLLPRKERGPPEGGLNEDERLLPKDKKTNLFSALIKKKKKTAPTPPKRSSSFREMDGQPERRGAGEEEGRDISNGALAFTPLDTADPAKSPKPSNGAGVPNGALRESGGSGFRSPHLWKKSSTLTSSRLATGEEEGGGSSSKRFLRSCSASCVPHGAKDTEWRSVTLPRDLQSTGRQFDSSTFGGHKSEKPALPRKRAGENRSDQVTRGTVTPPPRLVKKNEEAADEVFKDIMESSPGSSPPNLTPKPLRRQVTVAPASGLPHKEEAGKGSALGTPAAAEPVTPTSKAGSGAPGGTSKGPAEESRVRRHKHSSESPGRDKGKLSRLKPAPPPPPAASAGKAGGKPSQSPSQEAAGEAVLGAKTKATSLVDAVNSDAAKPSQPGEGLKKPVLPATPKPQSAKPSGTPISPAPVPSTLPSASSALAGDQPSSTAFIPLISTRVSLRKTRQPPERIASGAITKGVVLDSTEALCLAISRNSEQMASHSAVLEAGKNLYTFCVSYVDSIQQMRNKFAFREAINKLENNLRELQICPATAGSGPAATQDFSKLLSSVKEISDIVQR
Quantity Name: pIC50
Recall that pIC50 is obtained by taking minus log10 of the concentration measured in molar.

Exercise: Respond only with pIC50 recorded for CN1CCN(c2ccc(Nc3ncc4cc(C#N)c(=O)n(C5CCCC5)c4n3)cc2)CC1
Key: 7.27

====

target: Cyclin-dependent kinase 2/cyclin E1 (Homo sapiens); test: Inhibition of CDK2/cyclinE (unknown origin)
Quantity Name: IC50

Exercise: Respond only with IC50 recorded for Nc1ccc2c(=S)c3ccccc3[nH]c2c1
Key: > 100 µM

====

molecular target: Cyclin-dependent kinase 1/cyclin B1 (Homo sapiens, UniProt P06493); assay: Inhibition of CDK1/cyclinB (unknown origin)
Sequence (P06493 whole entry): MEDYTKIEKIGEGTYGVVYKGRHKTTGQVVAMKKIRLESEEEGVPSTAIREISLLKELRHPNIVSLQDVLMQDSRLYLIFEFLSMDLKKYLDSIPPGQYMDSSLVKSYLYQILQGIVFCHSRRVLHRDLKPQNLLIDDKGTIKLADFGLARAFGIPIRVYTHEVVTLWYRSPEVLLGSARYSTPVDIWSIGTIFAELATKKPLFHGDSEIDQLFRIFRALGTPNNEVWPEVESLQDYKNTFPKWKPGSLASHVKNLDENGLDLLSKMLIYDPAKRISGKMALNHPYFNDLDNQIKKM
Sequence (P14635 whole entry, further chain): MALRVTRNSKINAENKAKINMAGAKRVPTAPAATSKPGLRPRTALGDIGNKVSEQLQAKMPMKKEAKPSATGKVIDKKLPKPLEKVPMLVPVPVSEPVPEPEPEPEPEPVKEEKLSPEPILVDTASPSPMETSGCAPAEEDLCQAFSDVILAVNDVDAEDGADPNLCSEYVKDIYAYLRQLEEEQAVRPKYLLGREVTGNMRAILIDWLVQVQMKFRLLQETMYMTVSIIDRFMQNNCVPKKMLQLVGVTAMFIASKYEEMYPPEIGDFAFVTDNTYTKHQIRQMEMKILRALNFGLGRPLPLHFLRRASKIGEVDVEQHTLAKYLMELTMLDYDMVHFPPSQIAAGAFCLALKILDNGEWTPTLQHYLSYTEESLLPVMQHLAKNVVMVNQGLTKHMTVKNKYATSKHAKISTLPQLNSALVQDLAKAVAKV
Quantity Name: IC50

Exercise: Respond only with IC50 recorded for Nc1ccc2c(=S)c3ccccc3[nH]c2c1
Key: > 100 µM

====

molecular target: Tyrosine-protein kinase Fyn (Homo sapiens, UniProt P06241)
Sequence (P06241 whole entry): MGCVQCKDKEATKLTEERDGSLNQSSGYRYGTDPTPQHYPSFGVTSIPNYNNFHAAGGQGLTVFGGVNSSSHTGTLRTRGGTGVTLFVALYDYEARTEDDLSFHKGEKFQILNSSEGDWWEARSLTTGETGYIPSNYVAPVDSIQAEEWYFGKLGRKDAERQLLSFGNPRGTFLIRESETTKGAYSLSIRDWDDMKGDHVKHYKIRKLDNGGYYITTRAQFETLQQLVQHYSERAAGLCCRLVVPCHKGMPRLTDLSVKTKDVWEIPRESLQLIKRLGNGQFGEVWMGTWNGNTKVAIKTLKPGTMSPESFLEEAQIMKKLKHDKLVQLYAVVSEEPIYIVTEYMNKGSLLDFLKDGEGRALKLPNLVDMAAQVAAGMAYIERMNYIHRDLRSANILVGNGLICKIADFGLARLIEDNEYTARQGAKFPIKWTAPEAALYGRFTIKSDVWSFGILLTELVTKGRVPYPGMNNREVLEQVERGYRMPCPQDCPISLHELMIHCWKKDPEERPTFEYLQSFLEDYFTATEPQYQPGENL
Quantity Name: IC50
Kindly format the answer as number then unit.

Exercise: Respond only with IC50 recorded for CN1CCN(c2ccc(Nc3ncc4cc(C#N)c(=O)n(C5CCCC5)c4n3)cc2)CC1
Key: 11.1 nM

====

Target: Receptor-type tyrosine-protein kinase FLT3 (Homo sapiens, UniProt P36888)
Sequence (P36888 whole entry): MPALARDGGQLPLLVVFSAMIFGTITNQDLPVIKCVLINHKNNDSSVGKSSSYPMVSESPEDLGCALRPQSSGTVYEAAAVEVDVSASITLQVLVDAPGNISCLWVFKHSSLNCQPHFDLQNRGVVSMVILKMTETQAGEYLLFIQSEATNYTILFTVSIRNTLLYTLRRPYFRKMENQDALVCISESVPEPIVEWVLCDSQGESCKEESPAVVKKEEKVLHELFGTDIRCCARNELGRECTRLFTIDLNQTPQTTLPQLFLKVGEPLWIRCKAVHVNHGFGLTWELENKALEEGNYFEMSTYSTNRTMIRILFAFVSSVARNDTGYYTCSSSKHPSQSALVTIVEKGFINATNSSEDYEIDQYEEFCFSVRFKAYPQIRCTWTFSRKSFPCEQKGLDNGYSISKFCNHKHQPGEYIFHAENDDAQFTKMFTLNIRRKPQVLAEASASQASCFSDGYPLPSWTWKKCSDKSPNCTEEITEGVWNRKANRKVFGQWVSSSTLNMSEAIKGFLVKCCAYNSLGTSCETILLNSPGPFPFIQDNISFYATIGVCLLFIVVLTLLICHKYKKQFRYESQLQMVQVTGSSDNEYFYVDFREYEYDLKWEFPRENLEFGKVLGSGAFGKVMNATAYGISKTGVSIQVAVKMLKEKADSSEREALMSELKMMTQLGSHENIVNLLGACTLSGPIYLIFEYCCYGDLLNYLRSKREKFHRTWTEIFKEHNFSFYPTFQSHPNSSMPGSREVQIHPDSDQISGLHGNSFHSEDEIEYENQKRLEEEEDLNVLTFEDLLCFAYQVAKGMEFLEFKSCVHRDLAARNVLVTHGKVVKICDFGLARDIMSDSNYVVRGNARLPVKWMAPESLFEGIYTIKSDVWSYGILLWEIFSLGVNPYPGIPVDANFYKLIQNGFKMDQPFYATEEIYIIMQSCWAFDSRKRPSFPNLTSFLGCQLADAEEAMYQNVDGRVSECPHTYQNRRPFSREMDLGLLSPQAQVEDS
Quantity Name: IC50 (nM)
Field: numeric (nM). Do not append units.

Exercise: Respond only with IC50 recorded for CN1CCN(c2ccc(Nc3ncc4cc(C#N)c(=O)n(C5CCCC5)c4n3)cc2)CC1 [NARAZACICLIB]
Key: 12.2
